Biological target: T1, mature human TGF-β2 (human, UniProt P61812 303-414)
T1 construct: Bought protein (RDI, Cat # RDI-1035); also called TGF-b2
T1 sequence: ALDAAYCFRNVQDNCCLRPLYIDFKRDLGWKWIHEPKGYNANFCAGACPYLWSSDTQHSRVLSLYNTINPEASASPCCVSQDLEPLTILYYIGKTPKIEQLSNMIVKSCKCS
Experiment: BIAcore 2000 SPR, antibody captured on Protein A, TGF-β injected
Catalogue of binders with associated koff
Respond numerically; units are s⁻¹ and should not be typed.

Reference set (4 entries):
# binder, recorded-value
records = [
    ("mAb 4.17 (antibody, human IgG4 S228P, kappa, V domains shown, Full-length monoclonal antibody, made by linking the Fab to an IgG4 Fc region) VH: QVQLVQSGAEVKKPGASVKVSCKASGYTFTSYWMNWVRQAPGQGLEWMGQIFPFSGSTNYNEMFEGRVTMTTDTSTSTAYMELRSLRSDDTAVYYCARGIGNYALDAMDYWGQGTLVTVSS VL: DIQMTQSPSSLSASVGDRVTITCRASESVDFWGNSFMHWYQQKPGKAPKLLIYLASNLESGVPSRFSGSGSGTDFTLTISSLQPEDFATYYCQQNAEDPLTFGGGTKVEIKR", "9.86e-06"),
    ("mAb 12.4 (antibody, human IgG4 S228P, kappa, V domains shown, Full-length monoclonal antibody, made by linking the Fab to an IgG4 Fc region) VH: QVQLVQSGAEVKKPGASVKVSCKASGYTFTSYWMNWVRQAPGQGLEWMGQIFPALGSTNYGEMFEGRVTMTTDTSTSTAYMELRSLRSDDTAVYYCARGIGNYALDAMDYWGQGTLVTVSS VL: DIQMTQSPSSLSASVGDRVTITCRASESVDWWGNSFMHWYQQKPGKAPKLLIYLASNLESGVPSRFSGSGSGTDFTLTISSLQPEDFATYYCQQNIEDPLTFGGGTKVEIKR", "6e-06"),
    ("mAb 12.7 (antibody, human IgG4 S228P, kappa, V domains shown, Full-length monoclonal antibody, made by linking the Fab to an IgG4 Fc region) VH: QVQLVQSGAEVKKPGASVKVSCKASGYTFTSEWMNWVRQAPGQGLEWMGQIFPALGSTNYNEMYEGRVTMTTDTSTSTAYMELRSLRSDDTAVYYCARGIGNYALDAMDYWGQGTLVTVSS VL: DIQMTQSPSSLSASVGDRVTITCRASESVDFYGNSFMHWYQQKPGKAPKLLIYLASNLESGVPSRFSGSGSGTDFTLTISSLQPEDFATYYCQQNIEDPLTFGGGTKVEIKR", "1.11e-05"),
    ("mAb 3.A (antibody, human IgG4 S228P, kappa, V domains shown, Full-length monoclonal antibody, made by linking the Fab to an IgG4 Fc region) VH: QVQLVQSGAEVKKPGASVKVSCKASGYTFTSYWMNWVRQAPGQGLEWMGQIFPASGSTNYGEMFEGRVTMTTDTSTSTAYMELRSLRSDDTAVYYCARGIGNYALDAMDYWGQGTLVTVSS VL: DIQMTQSPSSLSASVGDRVTITCRASESVDFWGNSFMHWYQQKPGKAPKLLIYLASNLESGVPSRFSGSGSGTDFTLTISSLQPEDFATYYCQQNIEDPLTFGGGTKVEIKR", 0.000218),
]

We next turn to a different binder, shown below.
So what does the record say about koff for mAb 12.8 (antibody, human IgG4 S228P, kappa, V domains shown, Full-length monoclonal antibody, made by linking the Fab to an IgG4 Fc region) VH: QVQLVQSGAEVKKPGASVKVSCKASGYTFTSYWMNWVRQAPGQGLEWMGQIFPALGSTNYNEMFEGRVTMTTDTSTSTAYMELRSLRSDDTAVYYCARGIGNYALDAMDYWGQGTLVTVSS VL: DIQMTQSPSSLSASVGDRVTITCRASESVDWYGNSFMHWYQQKPGKAPKLLIYYASNLESGVPSRFSGSGSGTDFTLTISSLQPEDFATYYCQQNAEDPLTFGGGTKVEIKR ?
1.22e-05

The values you see were collected from patent US20090155285A1.
